Molecular target: T1, Chemokine beta-4 (CK-β4) (human, UniProt P78556 27-96, 125I label in the CCR6 membrane binding assay (Example 5))
T1 construct: also called CCL20; MIP-3α
T1 sequence (P78556 27-96 limits assumed): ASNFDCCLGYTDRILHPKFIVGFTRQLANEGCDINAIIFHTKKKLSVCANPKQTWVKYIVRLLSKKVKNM
Assay: inhibition of 125I-CK-β4 binding to CCR6 membranes by IgG1, Expt 3
The binders listed here are annotated with their EC50.
Quick reminder: number only, in nM, skip the unit.

BINDER: IgG1 antibody comprising the VH and VL domains of scFv F076C06 (antibody, V domains shown, IgG1) VH: QVQLVQSGPEVKKPGSSVKVSCRASGGTFSTYAFSWVRQAPGQGLEWMGGIIPVFETPIYAQKLQGRLTITADTSTDTAYMELSNLRSGDTAVYYCAREWGDYYSSVSSGALHYWGRGTLVTVSS VL: QAVLTQPSSASGTPGQRVTISCSGSSSNIGNNAVNWYQQLPGTAPKLLIYNNNQWPSGVPDRFSGSKSGTSASLAVSGLQSEDEADYYCAAWDDSLNGYVFGTGTQLTVLS
OBSERVED: 1.8
//
BINDER: IgG1 antibody comprising the VH and VL domains of scFv F002D02 (antibody, V domains shown, IgG1) VH: EVQLVQSGAEVKKPGSSVKVSCKASGGTFSSYAISWVRQAPGQGLEWMGGIIPIFGTANYAQKFQGRVTITADESTSTAYMELSSLRSEDTAVYYCAREDIVGAVDGFDIWGRGTLVTVSS VL: QSVLTQPPSVSAAPGQKVTISCSGSTSNIGNNYVSWYQQHPGKAPKLMIYDVSKRPSGVPDRFSGSKSGNSASLDISGLQSEDEADYYCAAWDDSLSEFLFGTGTKLTVLG
OBSERVED: 4.5
//
BINDER: IgG1 antibody comprising the VH and VL domains of scFv F002C08 (antibody, V domains shown, IgG1) VH: EVQLVESGAEVKKPGSSVKVSCKASGGTFSSYAISWVRQAPGQGLEWMGGIIPIFGTANYAQKFQGRVTITADESTSTAYMELSSLGSEDTAVYYCARESLTGDSELDLWGKGTLVTVSS VL: QSVLTQPPSVSAAPGQKVTISCSGSTSNIGNNYVSWYQQHPGKAPKLMIYDVSKRPSGVPDRFSGSKSGNSASLDISGLQSEDEADYYCAAWDDSLSEFLFGTGTKLTVLG
OBSERVED: 2.2

Consider the record given below.
Give the reported value of EC50 for this record: IgG1 antibody comprising the VH and VL domains of scFv F003F01 (antibody, V domains shown, IgG1; The printed VL start (142) looks late against the printed VL CDR1 (159-171)) VH: EVQLVQSGAEVRKPASSVKVSCKTSGGSFNDYSFNWVRQAPGQGLEWMGSIIPVFDMADYGQNFQGRLTITADESTTTAYMELSDLTPMDTAIYYCARVAMVGATHFDIWGQGTLVTVSS VL: QSVLTQPPSASGTPGQRVTISCSGGSSNIGSNPVNWYQQVPGTAPKLLIYLSDQRPAGVPDRFSGSKSGTSASLAISGLQSEDEADYYCSTWDDSLNDPVVFGGGTKVTVLG
0.13
